System: HBV DNA in HepG2.2.15 cells
Assay: HBV in vitro dot-blot hybridization test
Type: cell-based, Hepatitis B virus
Conditions: Hepatitis B virus, HepG2.2.15, dot-blot hybridization assay, read-out: Concentration for 50% inhibition of HBV (EC50)value
PROPERTY: EC50

Use the examples below as a reference point.
Task item: What does the data say about its EC50? Entry: CCOC(=O)C1=C2C[C@H](N3CCOC3=O)CN2C(c2nccs2)=N[C@H]1c1ccc(F)cc1Br
Reply: 100 to 500 nM

Task item: Let us now turn to CCOC(=O)C1=C2CNCCN2C(c2nccs2)=NC1c1ccc(F)cc1Br (racemic)
Reply: 1000 to 5000 nM

Task item: Follow-up entry: CCOC(=O)C1=C2CCOC(=O)N2C(c2nccs2)=NC1c1ccc(F)cc1Br (racemic)
Reply: 100 to 500 nM

# input for lookup
Task item: Name the recorded EC50 for CCOC(=O)C1=C2C[C@H](NC(=O)OC)CN2C(c2nccs2)=N[C@H]1c1ccc(F)cc1Br .
Reply: < 100 nM

###

Entries and their EC50 values follow.
Test system: HBV DNA in HepG2.2.15 cells
Assay: HBV in vitro dot-blot hybridization test
Assay type: cell-based, Hepatitis B virus
Settings: Hepatitis B virus, HepG2.2.15, dot-blot hybridization assay, read-out: Concentration for 50% inhibition of HBV (EC50)value
Source text: • 1. Purpose of the test: • The content of HBV DNA in HepG2.2.15 cells was detected by dot-blot hybridization test to evaluate an inhibitory action of the compound on HBV with an EC50 value as an indicator. • 2. […]

Answered cases to consult:
Task item: Fill blank: measured EC50 of the compound CCOC(=O)C1=C2C[C@H](c3nnn[nH]3)CN2C(c2nccs2)=N[C@H]1c1ccc(F)cc1Cl is ____.
Reply: 1 to 5 µM

Task item: Subsequent entry: CCOC(=O)C1=C2C[C@H](O)CN2C(c2nccs2)=N[C@@H]1c1ccc(F)cc1Cl
Reply: 1 to 5 µM

Task item: Another: CNS(=O)(=O)N[C@H]1CC2=C(C(=O)OC)[C@H](c3ccc(F)cc3Cl)N=C(c3nccs3)N2C1
Reply: < 0.1 µM

***
Task item: What value of EC50 has been recorded for this entry: CCOC(=O)C1=C2C[C@@H](CO)CN2C(c2nccs2)=N[C@H]1c1ccc(F)cc1Br
Reply: < 0.1 µM

Task item: Query CCOC(=O)C1=C2C[C@H](NS(=O)(=O)C(F)(F)F)CN2C(c2nccs2)=N[C@H]1c1ccc(F)cc1Cl next
Reply: < 0.1 µM

Task item: Next compound up: CCOC(=O)C1=C2CC(NS(C)(=O)=O)CN2C(c2nccs2)=N[C@H]1c1ccc(F)cc1Br (stereo partly drawn) [Example 58]
Reply: < 0.1 µM

Task item: // query: CCOC(=O)C1=C2C[C@H](NS(=O)(=O)c3cnn(C)c3)CN2C(c2nccs2)=N[C@H]1c1ccc(F)cc1Cl
Reply: < 0.1 µM

Task item: Consider next the compound CCOC(=O)C1=C2C[C@@H](NC(=O)OC)CN2C(c2nccs2)=N[C@H]1c1ccc(F)cc1Br in the same way.
Reply: 0.1 to 0.5 µM

Task item: Then CCOC(=O)C1=C2CC(NS(=O)(=O)C3CC3)CN2C(c2nccs2)=N[C@H]1c1ccc(F)cc1Br (mixture of isomers) [Example 60] ?
Reply: < 0.1 µM

Task item: Same again, this time with CCOC(=O)C1=C2C[C@H](NS(C)(=O)=O)CN2C(c2nccs2)=N[C@H]1c1ccc(F)cc1Br
Reply: < 0.1 µM

Task item: Moving on to CCOC(=O)C1=C2C[C@H](NC(=O)OC(C)(C)C)CN2C(c2nccs2)=N[C@H]1c1ccc(F)cc1Br
Reply: < 0.1 µM

Task item: Another: CCOC(=O)C1=C2CC(C(=O)O)CN2C(c2nccs2)=NC1c1ccc(F)cc1Br (racemic)
Reply: 1 to 5 µM

Task item: Query CCOC(=O)C1=C2CCCN2C(c2nccs2)=NC1c1cc(Cl)sc1Cl (racemic) next
Reply: 1 to 5 µM

Task item: How about this compound: CCOC(=O)C1=C2C[C@@H](c3nnn[nH]3)CN2C(c2nccs2)=N[C@H]1c1ccc(F)cc1Br
Reply: 1 to 5 µM

Task item: Try this compound next: CCOC(=O)C1=C2C(N(C)CCO)CCN2C(c2nccs2)=NC1c1ccc(F)cc1Cl (racemic)
Reply: 1 to 5 µM

Task item: How about this compound: CCOC(=O)C1=C2C[C@@H](CN3CCOCC3)CN2C(c2nccs2)=NC1c1ccc(F)cc1Br (mixture of isomers)
Reply: 1 to 5 µM

Task item: Record: CCOC(=O)C1=C2COCCN2C(c2nccs2)=NC1c1ccc(F)cc1Br (racemic)
Reply: 1 to 5 µM

###

EC50 by entry:
System: HBV DNA in HepG2.2.15 cells
Assay: HBV in vitro dot-blot hybridization test
Type: cell-based, Hepatitis B virus
Settings: Hepatitis B virus, HepG2.2.15, dot-blot hybridization assay, read-out: Concentration for 50% inhibition of HBV (EC50)value

Some solved entries appear below for comparison.
Task item: Query: EC50; subject: CCOC(=O)C1=C2C[C@H](N(C)C)CN2C(c2nccs2)=N[C@H]1c1ccc(F)cc1Br [Example 36]
Reply: 500 to 1000 nM

Task item: Also check CCOC(=O)C1=C2CN(S(C)(=O)=O)CCN2C(c2nccs2)=NC1c1ccc(F)cc1Br (racemic) [Example 87]
Reply: 500 to 1000 nM

Task item: Next molecule: COC(=O)C1=C2C[C@H](NS(=O)(=O)C3CC3)CN2C(c2nccs2)=N[C@H]1c1ccc(F)cc1Cl [Example 156]
Reply: < 100 nM

Task item: Further, for CCOC(=O)C1=C2C[C@@H](NC(C)=O)CN2C(c2nccs2)=N[C@H]1c1ccc(F)cc1Br [Example 49] ?
Reply: 100 to 500 nM

Task item: Note, next up: COCC1CC2=C(C(=O)OC)C(c3ccc(F)cc3Br)N=C(c3nccs3)N2C1 (racemic) [Example 10]
Reply: 1000 to 5000 nM

Task item: What do we get for CCOC(=O)C1=C2CCCN2C(c2nccs2)=NC1c1ccc(F)cc1Br (racemic) [Example 4] ?
Reply: 100 to 500 nM

Continuing:
Task item: # lookup: EC50 of COCOC(=O)C1=C2CCCN2C(c2nccs2)=NC1c1ccc(F)cc1Br (racemic) [Example 80]
Reply: 1000 to 5000 nM

Task item: # repeat for CCOC(=O)C1=C2CN(C(=O)C3CC3)CCN2C(c2nccs2)=N[C@H]1c1ccc(F)cc1Br [Example 91]
Reply: 100 to 500 nM

Task item: Next entry: CCOC(=O)CN(C)C[C@@H]1CC2=C(C(=O)OCC)[C@H](c3ccc(F)cc3Br)N=C(c3nccs3)N2C1 [Example 19]
Reply: 1000 to 5000 nM

###

Test system: HBV DNA in HepG2.2.15 cells
Assay: HBV in vitro dot-blot hybridization test
Format: cell-based, Hepatitis B virus
Conditions: Hepatitis B virus, HepG2.2.15, dot-blot hybridization assay, read-out: Concentration for 50% inhibition of HBV (EC50)value
PROPERTY: EC50

# count of solved cases: 6
Task item: Given the compound CCOC(=O)C1=C2CN(C(=O)OC)CCN2C(c2nccs2)=N[C@H]1c1ccc(F)cc1Br , what is its reported EC50?
Reply: 0.1 to 0.5 µM

Task item: Input CCOC(=O)C1=C2C[C@H](NC(=O)C(F)(F)F)CN2C(c2nccs2)=N[C@H]1c1ccc(F)cc1Cl
Reply: 0.1 to 0.5 µM

Task item: Subsequent entry: CCOC(=O)C1=C2CCCN2C(c2nc(C)cs2)=NC1c1ccc(F)cc1Cl (racemic)
Reply: 1 to 5 µM

Task item: Same again, this time with CCOC(=O)C1=C2CC(NC(=O)OC)CN2C(c2nccs2)=N[C@H]1c1ccc(F)cc1Br (mixture of isomers)
Reply: < 0.1 µM

Task item: Now this one: CCOC(=O)C1=C2CC(NC(C)=O)CN2C(c2nccs2)=N[C@H]1c1ccc(F)cc1Br (mixture of isomers)
Reply: 0.1 to 0.5 µM

Task item: What about CCOC(=O)C1=C2CN(S(=O)(=O)C3CC3)CCN2C(c2nccs2)=N[C@H]1c1ccc(F)cc1Br ?
Reply: 0.1 to 0.5 µM

Could you now look at the following compound, please?
Task item: State the recorded EC50 for this entry: CCOC(=O)C1=C2CN(C(=O)C3COC3)CCN2C(c2nccs2)=N[C@H]1c1ccc(F)cc1Br
Reply: 0.1 to 0.5 µM

###

System: HBV DNA in HepG2.2.15 cells
Experiment: HBV in vitro dot-blot hybridization test
Format: cell-based, Hepatitis B virus
Settings: Hepatitis B virus, HepG2.2.15, dot-blot hybridization assay, read-out: Concentration for 50% inhibition of HBV (EC50)value
PROPERTY: EC50

Task item: Lab note: need EC50 with HBV DNA in HepG2.2.15 cells for entry CCOC(=O)C1=C2CN(C#N)CCN2C(c2nccs2)=N[C@H]1c1ccc(F)cc1Br , please look it up.
Reply: 500 to 1000 nM

Next compound, please.
Task item: Please tell me: EC50 of CCOC(=O)C1=C2C[C@H](NC(C)=O)CN2C(c2nccs2)=N[C@H]1c1ccc(F)cc1Br , system HBV DNA in HepG2.2.15 cells?
Reply: 1000 to 5000 nM
